Task for the reader: assign each of the following molecules its reported pIC50.
- target_or_test_system: TNFα (Homo sapiens (Human), UniProt P01375)
- Sequence (P01375 77-233): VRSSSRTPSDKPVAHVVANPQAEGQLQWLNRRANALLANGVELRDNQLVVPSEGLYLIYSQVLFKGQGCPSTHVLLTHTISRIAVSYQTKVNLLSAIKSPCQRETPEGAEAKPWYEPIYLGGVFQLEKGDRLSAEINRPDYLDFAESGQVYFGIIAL
- assay_notes: TNF induced HEK-Blue assay
- measurement_context: TNFα 0.5 ng/ml; HEK-Blue-CD40L cells, NF-κB-driven secreted alkaline phosphatase reporter; 18 h
pIC50: −log10 of the molar value.

{"molecule": "Cc1ccc(C)c([C@H]2CCc3nc4ccc(-c5cnc(C(C)(C)O)nc5)nc4n32)c1", "target_or_test_system": "TNFα (Homo sapiens (Human), UniProt P01375)", "experimental_result": "> 6.00"}

Give pIC50 for all molecules that follow.
1. CC(C)(O)c1ccc(-c2ccc3nc4n(c3n2)C(c2c(F)cccc2C(F)(F)F)CC4F)cc1 (stereo not shown) [Example 23 (e1)]
2. CC(C)(O)c1ccc(-c2ccc3nc4n(c3n2)C(c2ccccc2C(F)(F)F)CC4F)cc1 (single isomer, unassigned) [Example 14 (e3)]
3. FC(F)Oc1ccccc1C1CC(F)c2nc3ccc(-c4cnc(N5CCOCC5)nc4)nc3n21 (stereo not shown)

**Result**
1. > 6.00
2. 5.00 to 6.00
3. > 6.00

Give pIC50 for all molecules that follow.
1. CC(C)(O)c1ccc(-c2ccc3nc4n(c3n2)C(c2ccccc2OC(F)F)CC4O)cc1 (single isomer, unassigned) [Example 2 (e2)]
2. CC(C)(O)c1ccc(-c2ccc3nc4n(c3n2)C(c2ccccc2C2CC2)CC4F)cc1 (single isomer, unassigned) [Example 21 (e4)]
3. CC(C)(O)c1ccc(-c2ccc3nc4n(c3n2)C(c2ccccc2OC(F)F)CC4F)cc1 (single isomer, unassigned) [Example 15 (e2)]
4. CC(C)(O)c1ccc(-c2ccc3nc4n(c3n2)C(c2c(F)cccc2C(F)(F)F)CC4F)cc1 (single isomer, unassigned) [Example 23 (e2)]
5. CC(C)(O)c1ccc(-c2ccc3nc4n(c3n2)C(c2ccccc2OC(F)(F)F)CC4F)cc1 (single isomer, unassigned) [Example 22 (e2)]
6. CC(C)(O)c1ccc(-c2ccc3nc4n(c3n2)C(c2c(F)cccc2C(F)(F)F)CC4)cc1 (single isomer, unassigned) [Example 32 (e1)]

**Result**
1. 5.00 to 6.00
2. > 6.00
3. 4.60 to 5.00
4. 5.00 to 6.00
5. 5.00 to 6.00
6. > 6.00

Give pIC50 for all molecules that follow.
1. CC(C)(O)c1ccc(-c2ccc3nc4n(c3n2)C(c2c(F)cccc2C(F)(F)F)CC4O)cc1 (stereo not shown) [Example 3 (e4)]
2. COc1ccc(-c2ccc3nc4n(c3n2)C(c2ccccc2OC(F)F)CC4F)cn1 (stereo not shown) [Example 18 (DM)]
3. CC(C)(O)c1ccc(-c2ccc3nc4n(c3n2)C(c2ccccc2OC(F)F)CC4)cc1 (single isomer, unassigned) [Example 26 (e1)]

**Result**
5.00 to 6.00
5.00 to 6.00
> 6.00

###

Task for the reader: assign each of the following molecules its reported IC50.
- target_or_test_system: TNFα (Homo sapiens (Human), UniProt P01375)
- assay_notes: TNF induced HEK-Blue assay
- measurement_context: TNFα 0.5 ng/ml; HEK-Blue-CD40L cells, NF-κB-driven secreted alkaline phosphatase reporter; 18 h

In the examples that follow, each entry is paired with its recorded IC50.
{"molecule": "CC(C)(O)c1ccc(-c2ccc3nc4n(c3n2)C(c2c(F)cccc2C(F)(F)F)CC4O)cc1 (single isomer, unassigned) [Example 3 (e3)]", "IC50": "< 1 µM"}
{"molecule": "CC(C)(O)c1ccc(-c2ccc3nc4n(c3n2)C(c2ccccc2OC(F)F)CC4O)cc1 (single isomer, unassigned) [Example 2 (e4)]", "IC50": "1 to 10 µM"}
{"molecule": "CC(C)(O)c1ccc(-c2ccc3nc4n(c3n2)C(c2ccccc2C2CC2)CC4)cc1 (single isomer, unassigned) [Example 33 (e2)]", "IC50": "1 to 10 µM"}

**Query** Endpoint output: IC50 of CC(C)(O)c1ccc(-c2ccc3nc4n(c3n2)C(c2ccccc2OC(F)F)CC4O)cc1 (single isomer, unassigned) [Example 2 (e3)] . Value?
**Result** 1 to 10 µM

###

- target_or_test_system: UniProtKB P01375
- assay_notes: TNF induced HEK-Blue assay
- measurement_context: TNFα 0.5 ng/ml; HEK-Blue-CD40L cells, NF-κB-driven secreted alkaline phosphatase reporter; 18 h
observable: IC50

In the examples that follow, each entry is paired with its recorded IC50.
{"molecule": "COc1ccc(-c2ccc3nc4n(c3n2)C(c2ccccc2OC(F)F)CC4F)cn1 (single isomer, unassigned) [Example 18 (e2)]", "experimental_result": "10000 to 25000 nM"}
{"molecule": "CC(C)(O)c1ccc(-c2ccc3nc4n(c3n2)C(c2ccccc2C(F)(F)F)CC4)cc1 (single isomer, unassigned) [Example 25 (e2)]", "experimental_result": "< 1000 nM"}
{"molecule": "CC(C)(O)c1ccc(-c2ccc3nc4n(c3n2)C(c2cc(F)ccc2C(F)(F)F)CC4O)cc1 (single isomer, unassigned) [Example 13 (e1)]", "experimental_result": "< 1000 nM"}
{"molecule": "CC(C)(O)c1ccc(-c2ccc3nc4n(c3n2)C(c2cc(F)ccc2C(F)(F)F)CC4F)cc1 (stereo not shown) [Example 24 (DM)]", "experimental_result": "< 1000 nM"}
{"molecule": "Cc1ccc(C)c([C@H]2CCc3nc4ccc(-c5ccc(N6CCN(C)CC6)cc5)nc4n32)c1 [Example 38]", "experimental_result": "1000 to 10000 nM"}
{"molecule": "CC(C)(O)c1ccc(-c2ccc3nc4n(c3n2)C(c2cc(F)ccc2C(F)(F)F)CC4O)cc1 (single isomer, unassigned) [Example 13 (e3)]", "experimental_result": "1000 to 10000 nM"}
{"molecule": "Cc1ccc(C)c([C@H]2CCc3nc4ccc(-c5ccc(C(C)(C)O)cc5)nc4n32)c1 [Example 37]", "experimental_result": "< 1000 nM"}
{"molecule": "CC(C)(O)c1ccc(-c2ccc3nc4n(c3n2)C(c2ccccc2OC(F)(F)F)CC4F)cc1 (stereo not shown) [Example 22 (e3)]", "experimental_result": "1000 to 10000 nM"}

Give IC50 for all molecules that follow.
1. CC(C)(O)c1ccc(-c2ccc3nc4n(c3n2)C(c2c(F)cccc2C(F)(F)F)CC4O)cc1 (single isomer, unassigned) [Example 3 (e1)]
2. COc1ccccc1C1CC(O)c2nc3ccc(-c4ccc(C(C)(C)O)cc4)nc3n21 (single isomer, unassigned) [Example 12 (e3)]

**Result**
1: < 1000 nM; 2: 10000 to 25000 nM
